src = PubChem BioAssay

molecular target: Dickkopf-related protein 1 (Homo sapiens); test: DKK1 binders on small-molecule microarrays, primary screen, biochemical, small-molecule microarray, 635 nm fluorescence scan (AID 1106); settings: DKK1 binding, higher = more signal;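 note: score merges emission near 667 nm with signal to noise over three replicate slides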
outcome_measure: composite z-score
Keep it simple and answer with nothing but the number.

-- ask Kindly state the measured composite z-score obtained for O=C1C2C=CC(C(O)c3ccccc3)N(Nc3ccccc3F)C2C(=O)N1c1ccccc1 (centres undefined) with Dickkopf-related protein 1 (Homo sapiens).
-- reply 0.0646

-- ask Then what about the compound O=C1N(Cc2ccccc2)Cc2ccccc2[C@@H]2OC(c3ccc(OCCCO)cc3)=N[C@]12CCS(=O)(=O)c1ccccc1 ?
-- reply -0.222

-- ask Then what about the compound O=C1O[C@H](c2ccccc2)[C@H](c2ccccc2)N2[C@H]1[C@@H](C(=O)Nc1nc3ccccc3s1)[C@]1(C(=O)Nc3ccc(C#CCCO)cc31)[C@H]2c1ccc(O)cc1 ?
-- reply 0.198

-- ask Then what about the compound CCCCCCc1nc(C2CC2)cc2c1[Si](C(C)C)(C(C)C)O[C@H]2c1ccccc1 ?
-- reply 0.546

-- ask Then what about the compound O=C1OCC=C[C@H]2OC34C=CCN(Cn5nnc6ccccc65)C(=O)[C@H]3N(CCCO)C(=O)[C@@H]4[C@@H]12 (some centres undefined) ?
-- reply -0.448

-- ask Then what about the compound O=C(NCC(F)(F)F)[C@@H]1c2ccccc2C(=O)N(Cc2ccccc2C(F)(F)F)[C@H]1c1ccc(CO)cc1 ?
-- reply -0.377

-- ask Then what about the compound O=C1O[C@H](c2ccccc2)[C@H](c2ccccc2)N2[C@H]1[C@@H](C(=O)NC[C@H](O)c1ccccc1)[C@]1(C(=O)Nc3ccc(C#CCCO)cc31)[C@H]2c1ccc(OCCO)cc1 ?
-- reply 0.264

-- ask Then what about the compound COc1ccc(-c2nc(-c3ccccc3)c3c(c2C)CO[Si]3(C(C)C)C(C)C)cn1 ?
-- reply 0.125

-- ask Then what about the compound COCCOC(=O)N1C(=O)[C@@]2(c3cc(C#CC4=CCCCC4)ccc31)[C@H](C(=O)N1CCCCCCC1)[C@H]1C(=O)O[C@H](c3ccccc3)[C@H](c3ccccc3)N1[C@@H]2c1ccc(O)cc1 ?
-- reply 0.163

-- ask Then what about the compound CC(C)N1CC=CC23O[C@@H]4C=CCOC(=O)[C@@H]4[C@H]2C(=O)N(CCCO)[C@@H]3C1=O (some centres undefined) ?
-- reply -0.74

-- ask Then what about the compound COCCOC(=O)N1C(=O)[C@@]2(c3cc(C#CC4=CCCCC4)ccc31)[C@H](c1ccc(O)cc1)N1[C@H](c3ccccc3)[C@H](c3ccccc3)OC(=O)[C@H]1[C@@H]2C(=O)N1CCN(c2ncccn2)CC1 ?
-- reply -1.22

-- ask Then what about the compound C=CCC(OC(C)=O)[C@@H]1[C@@H](N(Cc2cccc3ccccc23)C(=O)Cc2ccc(F)cc2)c2cc(OCCCO)ccc2N1C(=O)c1ccc2ccccc2n1 (some centres undefined) ?
-- reply -0.305

-- ask Then what about the compound C=CCC(OC(C)=O)[C@@H]1[C@@H](N(Cc2ccc(-c3cccc(C(F)(F)F)c3)o2)C(=O)c2ccc(-c3ccccc3)cc2)c2cc(OCCCO)ccc2N1C(=O)c1ccc2ccccc2n1 (some centres undefined) ?
-- reply -0.0126

-- ask Then what about the compound COCCCNC(=O)[C@]1(CCS(=O)(=O)c2ccccc2)N=C(c2ccc(OCCCO)cc2)O[C@@H]1c1ccccc1N=[N+]=[N-] ?
-- reply -0.262

====

Record form. Attribute: composite z-score. Fill in for each entry.
biological target: Focal adhesion kinase 1 (Homo sapiens) (UniProt Q05397); assay: small-molecule microarray binders of FAK, primary screen, biochemical, 635/667 nm fluorescence, BSA, DTT (AID 1130); conditions: PTK2 binding, 635 nm fluorescence, higher = more signal;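 note: composite of spot emission at 667 nm and signal to noise over triplicate slides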
Sequence (Q05397 whole entry, looked up): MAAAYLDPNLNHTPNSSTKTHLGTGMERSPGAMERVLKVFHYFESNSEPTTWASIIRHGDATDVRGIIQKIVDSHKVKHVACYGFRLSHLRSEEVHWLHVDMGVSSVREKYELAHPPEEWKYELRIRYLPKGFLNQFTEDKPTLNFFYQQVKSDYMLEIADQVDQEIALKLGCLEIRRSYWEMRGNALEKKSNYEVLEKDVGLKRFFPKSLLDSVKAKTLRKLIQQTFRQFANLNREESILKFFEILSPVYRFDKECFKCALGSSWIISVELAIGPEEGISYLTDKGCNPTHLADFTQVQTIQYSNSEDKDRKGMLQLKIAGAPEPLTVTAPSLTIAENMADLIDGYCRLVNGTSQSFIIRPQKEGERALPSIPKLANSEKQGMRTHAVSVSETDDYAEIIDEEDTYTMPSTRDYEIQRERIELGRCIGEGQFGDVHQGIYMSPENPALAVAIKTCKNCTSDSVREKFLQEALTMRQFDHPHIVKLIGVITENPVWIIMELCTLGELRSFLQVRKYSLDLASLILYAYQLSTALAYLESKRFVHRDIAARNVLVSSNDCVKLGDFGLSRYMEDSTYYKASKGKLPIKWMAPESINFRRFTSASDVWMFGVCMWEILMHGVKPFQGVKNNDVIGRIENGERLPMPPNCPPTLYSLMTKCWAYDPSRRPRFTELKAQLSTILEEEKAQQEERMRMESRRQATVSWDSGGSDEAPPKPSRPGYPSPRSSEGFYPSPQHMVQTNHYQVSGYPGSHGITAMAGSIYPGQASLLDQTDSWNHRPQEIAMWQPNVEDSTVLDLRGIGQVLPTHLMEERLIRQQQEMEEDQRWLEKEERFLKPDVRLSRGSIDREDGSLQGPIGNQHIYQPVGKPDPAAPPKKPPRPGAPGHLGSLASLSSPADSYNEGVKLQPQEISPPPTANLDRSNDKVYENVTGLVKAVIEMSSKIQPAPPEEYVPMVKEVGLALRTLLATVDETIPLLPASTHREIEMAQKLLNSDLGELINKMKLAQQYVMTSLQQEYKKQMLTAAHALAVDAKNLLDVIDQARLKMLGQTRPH
Keep it simple and answer with nothing but the number.

-- ask Return reported composite z-score; argument: O=C1OCCC/C=C\[C@H]2OC34C=CCN(CCN5CCOCC5)C(=O)[C@H]3N(CCCCCCO)C(=O)[C@@H]4C12 (some centres undefined)
-- reply -0.447

-- ask Then what about the molecule C=C(/C(=C/C[C@H](OC(C)=O)c1ccccc1OCCO)c1cc(C(=O)OC)ccc1OC)C(C)C ?
-- reply -0.164

-- ask Then what about the molecule COC(=O)Cn1c(C(=O)N(C)C)cc2c1C[C@H]1CN(C(=O)c3ccccc3)[C@@](Cc3ccc(F)cc3)(C(=O)OC)[C@@H]21 ?
-- reply 1.25

-- ask Then what about the molecule CCCC[C@@H](O)C1=C(COc2ccccc2)C[C@H]2C(=O)N(C)C(=O)[C@H]2[C@H]1CO ?
-- reply 0.713

====

test: small-molecule microarray binders of probe aWnt5a, primary screen, biochemical, biotinylated probe, 635/667 nm fluorescence (AID 1113); details: higher = more signal;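 note: score merges 667 nm fluorescence intensity with signal-to-noise per printed feature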
outcome_measure: composite z-score

-- ask Return reported composite z-score; argument: COc1ccc(-c2cc3c(c(CCc4ccccc4)n2)[Si](C(C)C)(C(C)C)OC3)cn1
-- reply -0.15

-- ask Then what about the molecule C=CCOC(=O)[C@H]1[C@@H]2C(=O)O[C@@H](c3ccccc3)[C@@H](c3ccccc3)N2[C@@H](c2ccc(OCCOC(=O)[C@H]3C[C@H]4C(=O)N[C@@H](CC(C)C)C(=O)N4[C@H]3c3cccc(OCCO)c3)cc2)[C@]12C(=O)Nc1ccc(I)cc12 ?
-- reply -0.168

-- ask Then what about the molecule O=C1O[C@H](c2ccccc2)[C@H](c2ccccc2)N2[C@H]1[C@@H](C(=O)N1CCN(c3ncccn3)CC1)[C@]1(C(=O)Nc3ccc(C#CC4(O)CCCCCC4)cc31)[C@H]2c1ccc(OCCO)cc1 ?
-- reply 0.793

====

molecular target: Alpha-bungarotoxin (Bungarus multicinctus) (UniProt P60615); assay: alpha-bungarotoxin binders on microarray, profiling panel, artefact control for SMM control protein annotation, biochemical, small-molecule microarray, Alexa647 label, 635/667 nm fluorescence (AID 1117); settings: alpha-BTX-A647 binding fluorescence, higher = more signal
Sequence (P60615 whole entry, looked up): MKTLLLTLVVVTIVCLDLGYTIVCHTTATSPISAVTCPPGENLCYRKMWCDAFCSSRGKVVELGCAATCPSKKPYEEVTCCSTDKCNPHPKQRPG
Record form. Attribute: composite z-score. Fill in for each entry.
Keep it simple and answer with nothing but the number.

-- ask Return reported composite z-score; argument: CC(C)C[C@@H]1NC(=O)[C@@H]2C[C@H](C(=O)NCCCCN(C)C)[C@H](c3cccc(OCCO)c3)N2C1=O
-- reply -0.555

-- ask Then what about the compound CC(=O)NCCCC[C@@H]1NC(=O)[C@H]2C[C@@H](C(=O)NCCCC[N+](C)(C)C)[C@@H](c3cccc(OCCO)c3)N2C1=O ?
-- reply 0.604

-- ask Then what about the compound NC(=O)NCC#Cc1ccc2c(c1)[C@]1(C(=O)N2)[C@H](C(=O)O)[C@H]2C(=O)O[C@H](c3ccccc3)[C@H](c3ccccc3)N2[C@@H]1c1ccc(OCCO)cc1 ?
-- reply 2.01

-- ask Then what about the compound COCCOC(=O)N1C(=O)[C@@]2(c3ccccc31)[C@H](C(=O)N1CCN(c3ncccn3)CC1)[C@H]1C(=O)O[C@H](c3ccccc3)[C@H](c3ccccc3)N1[C@@H]2c1ccc(O)cc1 ?
-- reply 1.72

-- ask Then what about the compound CN1C(=O)C2C=CC(C(O)c3cccc(O)c3)N(Nc3ccccc3)C2C1=O (stereo unspecified) ?
-- reply 0.041

-- ask Then what about the compound CC(C)[Si](C#C[Si](C(C)C)(C(C)C)C(C)C)(O[C@H](C)c1cn([C@H](CO)Cc2ccccc2)nn1)C(C)C ?
-- reply -0.0846

-- ask Then what about the compound CCOC(=O)C[C@H]1[C@H](OC(=O)Cc2ccc3c(c2)OCO3)[C@@H](NC(=O)Cc2ccc(OC)cc2)c2cc(OCCCO)ccc2N1C(=O)c1ccc2ccccc2n1 ?
-- reply 0.424

-- ask Then what about the compound O=C(N1CCCCC1)[C@@]1(CCS(=O)(=O)c2ccccc2)COC(c2ccc(OCCCO)cc2)=N1 ?
-- reply 0.632

-- ask Then what about the compound C[C@@H]1NC(=O)[C@@]23C(=O)N[C@@H](Cc4ccccc4)C2[C@H](C)[C@@]2(C)O[C@H]2C3/C=C/C/C=C\CNC(=O)[C@@H]2CCCN2C1=O (stereo partly specified) ?
-- reply -0.123

-- ask Then what about the compound COC(=O)[C@H](Cc1ccccc1)N1CC(/C=C/C2CC2)=C[C@H]1[C@H](O)Cc1ccccc1 ?
-- reply 1.2

-- ask Then what about the compound C=CCC(OC(C)=O)[C@@H]1[C@@H](N(Cc2cccc3ccccc23)C(=O)Cc2ccc(OC)cc2)c2cc(OCCCO)ccc2N1C(=O)c1ccc2ccccc2n1 (stereo partly specified) ?
-- reply 0.472

-- ask Then what about the compound C=CCNC(=O)[C@@H]1[C@H]2C(=O)O[C@H](c3ccccc3)[C@H](c3ccccc3)N2[C@H](c2ccc(O)cc2)[C@@]12C(=O)N(C(=O)OCCOC)c1ccc(C#CC3(O)CCCCCC3)cc12 ?
-- reply -1.42

-- ask Then what about the compound CC=CC(O)C1C=CC2C(=O)N(c3ccccc3)C(=O)C2N1Nc1ccccc1F (stereo unspecified) ?
-- reply 0.437

-- ask Then what about the compound O=C(CS)NCCCCCNC(=O)[C@@H]1C[C@@H]2C(=O)N3CCC[C@H]3C(=O)N2[C@@H]1c1cccc(OCCO)c1 ?
-- reply 1.14

-- ask Then what about the compound COCCCNC(=O)[C@@]1(Cc2ccccc2N=[N+]=[N-])COC(c2ccc(OCCCO)cc2)=N1 ?
-- reply 2.18

-- ask Then what about the compound COCCOC(=O)N1C(=O)[C@@]2(c3cc(C#CCCO)ccc31)[C@H](c1ccccc1OCCO)N1[C@H](c3ccccc3)[C@H](c3ccccc3)OC(=O)[C@H]1[C@@H]2C(=O)Nc1nc2ccccc2s1 ?
-- reply 2.29

-- ask Then what about the compound COc1ccccc1CN1C(=O)c2ccccc2[C@](Cc2ccccc2I)(C(=O)NCC(F)(F)F)[C@@H]1c1ccc(CO)cc1 ?
-- reply 1.36

-- ask Then what about the compound CCOC(=O)C[C@H]1[C@H](OC(=O)c2cc3ccccc3oc2=O)[C@@H](NC(=O)c2ccc(-c3ccccc3)cc2)c2cc(OCCCO)ccc2N1C(=O)c1ccc2ccccc2n1 ?
-- reply 0.422

-- ask Then what about the compound CC(C)C(=C=CC[C@H](O)c1cccc(OCCO)c1)C[C@H](O)c1cc(Cl)cc(Cl)c1O ?
-- reply 0.986

-- ask Then what about the compound COC(=O)[C@@]1(Cc2ccc(F)cc2)[C@H]2c3cc(C(=O)N4CCCC4)n(CCN4CNCC4=O)c3C[C@H]2CN1C(=O)c1ccccc1 ?
-- reply 1.07

-- ask Then what about the compound COc1ccc(C#Cc2ccc3c(c2)[C@]2(C(=O)N3)[C@H](c3ccc(O)cc3)N3[C@H](c4ccccc4)[C@H](c4ccccc4)OC(=O)[C@H]3[C@@H]2C(=O)O)cc1 ?
-- reply -0.0251

-- ask Then what about the compound C=C(COC)/C(=C/C[C@H](OC(C)=O)c1ccc(OCCO)cc1)c1cc(C(=O)OC)ccc1OC ?
-- reply 0.0079

-- ask Then what about the compound O=C1O[C@H](c2ccccc2)[C@H](c2ccccc2)N2[C@H]1[C@@H](C(=O)NC[C@H](O)c1ccccc1)[C@]1(C(=O)Nc3ccc(C#CCCO)cc31)[C@H]2c1ccc(OCCO)cc1 ?
-- reply 1.16

-- ask Then what about the compound O=C(NCC(F)(F)F)[C@@H]1c2ccccc2C(=O)N(Cc2ccc(OC(F)(F)F)cc2)[C@H]1c1ccc(CO)cc1 ?
-- reply 0.173

-- ask Then what about the compound COC(=O)[C@@]1(Cc2ccc(OC)cc2)[C@H]2c3cc(C(=O)N4CCCC4)n(Cc4cccc5ccccc45)c3C[C@H]2CN1C(=O)c1ccccc1 ?
-- reply 0.716

-- ask Then what about the compound COCCOC(=O)N1C(=O)[C@@]2(c3cc(C#CC4=CCCCC4)ccc31)[C@H](C(N)=O)[C@H]1C(=O)O[C@H](c3ccccc3)[C@H](c3ccccc3)N1[C@@H]2c1ccccc1OCCO ?
-- reply 1.69
